method-description: The drug is tested on Clostridium symbiosum strain: ATCC14940 for biotransformation. The drug concentrations were measured before and after a 12-h incubation by liquid-chromatography-coupled mass spectrometry (LC–MS)
condition-notes: 2 µM
outcome-measure: Bacterial Biotransformation

compound	Bacterial Biotransformation
CC(=O)OCC(=O)[C@@]1(OC(C)=O)[C@@H](C)C[C@H]2[C@@H]3C[C@H](F)C4=CC(=O)C=C[C@]4(C)[C@@]3(F)[C@@H](O)C[C@@]21C [DIFLORASONE DIACETATE]	Compound metabolized
CCN(CC)CCNC(C(=O)OCCC(C)C)c1ccccc1.Cl.Cl (configuration not stated)	Compound NOT metabolized
O=C(Nc1ccccc1)OCC(CN1CCCCC1)OC(=O)Nc1ccccc1 (configuration not stated)	Compound NOT metabolized
CC[C@H](C)C(=O)O[C@H]1C[C@@H](C)C=C2C=C[C@H](C)[C@H](CC[C@@H]3C[C@@H](O)CC(=O)O3)[C@H]21	Compound NOT metabolized
CC[C@H](C)C(=O)O[C@H]1CCC=C2C=C[C@H](C)[C@H](CC[C@@H]3C[C@@H](O)CC(=O)O3)[C@H]21	Compound metabolized
CN(C)CCOC(c1ccc(Cl)cc1)c1ccccn1.O=C(O)/C=C\C(=O)O (configuration not stated) [CARBINOXAMINE MALEATE]	Compound NOT metabolized
O=C(NCc1ccccc1)OCCO [BURAMATE]	Compound NOT metabolized
CCc1nc(N)nc(N)c1-c1ccc(Cl)cc1	Compound NOT metabolized
CCOc1cc(CC(=O)N[C@@H](CC(C)C)c2ccccc2N2CCCCC2)ccc1C(=O)O [REPAGLINIDE]	Compound metabolized
CCOC(=O)[C@H](CCc1ccccc1)N[C@@H](C)C(=O)N1Cc2ccccc2C[C@H]1C(=O)O	Compound metabolized

Query :: I would be grateful if you could share the reported Bacterial Biotransformation for C[C@]12C=CC(=O)C=C1CC[C@@H]1[C@@H]2C(=O)C[C@@]2(C)[C@H]1CC[C@]2(O)C(=O)CO .
Result :: Compound NOT metabolized

Query :: I would be grateful if you could share the reported Bacterial Biotransformation for CCc1cccc2c3c([nH]c12)C(CC)(CC(=O)O)OCC3 (configuration not stated) .
Result :: Compound NOT metabolized

Query :: I would be grateful if you could share the reported Bacterial Biotransformation for CC(C)c1nc(N(C)S(C)(=O)=O)nc(-c2ccc(F)cc2)c1/C=C/[C@@H](O)C[C@@H](O)CC(=O)[O-].CC(C)c1nc(N(C)S(C)(=O)=O)nc(-c2ccc(F)cc2)c1/C=C/[C@@H](O)C[C@@H](O)CC(=O)[O-].[Ca+2] .
Result :: Compound NOT metabolized

Query :: I would be grateful if you could share the reported Bacterial Biotransformation for O=C1NCC2(CCN(CCc3ccccc3)CC2)O1 [FENSPIRIDE] .
Result :: Compound NOT metabolized

Query :: I would be grateful if you could share the reported Bacterial Biotransformation for C[C@@H](CO)NC(=O)[C@@H]1C=C2c3cccc4[nH]cc(c34)C[C@H]2N(C)C1.O=C(O)/C=C\C(=O)O [ERGONOVINE MALEATE] .
Result :: Compound metabolized

Query :: I would be grateful if you could share the reported Bacterial Biotransformation for Cc1ccc(-c2nc3ccc(C)cn3c2CC(=O)N(C)C)cc1 .
Result :: Compound NOT metabolized

Query :: I would be grateful if you could share the reported Bacterial Biotransformation for COc1ccccc1OCC(O)COC(N)=O (configuration not stated) .
Result :: Compound NOT metabolized
